Ref: PubChem BioAssay (NCI)

// reported TGI for each item listed
Tested on: UO-31 renal
testDetails: NCI tumour cell line growth inhibition, 48 h
Where a SMILES comes first, the peptide text is derived from it. The star is where a group is joined. Palmitoyl = CCCCCCCCCCCCCCCC(=O)*

Reference set (3 entries):
# molecule, observedResult
measured = [
    ("COc1ncnc(NS(=O)(=O)c2ccc(N=C3C(=O)N(CN4CCN(c5c(F)cc6c(=O)c(C(=O)O)cn(C7CC7)c6c5OC)CC4C)c4ccc(Br)cc43)cc2)c1OC (stereo not drawn)", "> 50 µM"),
    ("NC1CC(=O)c2c1sc(Cl)c2Cl (stereo not drawn)", "> 100 µM"),
    ("CCOP1(=O)C=C(C)C(Cl)=C(C)C1 (stereo not drawn)", "> 100 µM"),
]

Ask: Notebook entry, UO-31 renal assay: TGI of CC(=O)C1=CN=C2C(=O)N(c3ccccc3)N(C)C12C (stereo not drawn) = ?
Result: > 100 µM

Ask: Notebook entry, UO-31 renal assay: TGI of O=[N+]([O-])c1cccc2nc3ccccc3c(NCCCNc3c4ccccc4nc4cccc([N+](=O)[O-])c34)c12 = ?
Result: 0.143 µM

Ask: Notebook entry, UO-31 renal assay: TGI of CCCCCCCCCCCCCCCC(=O)N1CCCC1C(=O)NCC(=O)NC(Cc1ccccc1)C(=O)NC(C)C(=O)NC(CO)C(=O)NC(Cc1ccc(O)cc1)C(=O)NC(CCCCN)C(=O)NC(CC(C)C)C(=O)NC(CCCN=C(N)N)C(=O)N1CCCC1C(=O)NCC(N)=O (stereo not drawn) (Palmitoyl-PGFASYKLRPG-NH2; configuration not given here) = ?
Result: 52.1 µM

Ask: Notebook entry, UO-31 renal assay: TGI of N#Cc1ccc(C=NC23CC4CC(CC(C4)C2)C3)cc1 = ?
Result: > 100 µM

Ask: Notebook entry, UO-31 renal assay: TGI of N#CC(c1ccccn1)c1nc2ccccc2[nH]1 (stereo not drawn) = ?
Result: > 100 µM

###

// reported TGI for each item listed
Tested on: HCT-116 colon
testDetails: NCI tumour cell line growth inhibition, 48 h
Write the number in µM without appending the unit.

# compound, TGI (µM)
data = [
    ("C[C@]12CC[C@@H]3c4cc(OC(F)F)c(OS(N)(=O)=O)cc4CC[C@H]3[C@@H]1CC[C@@H]2O", 15),
    ("CCOP1(=O)C=C(C)C(Cl)=C(C)C1 (centres undefined)", 41.4),
    ("CC(=O)NC1C(OCc2ccccc2)OC(CO)C(O)C1OC(C)C(=O)NC(C)C(=O)NC(CCC(=O)NCCCCNc1c2ccccc2nc2cccc([N+](=O)[O-])c12)C(N)=O (centres undefined)", 0.068),
]

Ask: Quick one: TGI of Cc1cc(N(CCC#N)CCC#N)ccc1/C(N=Nc1cccc(Cl)c1)=N/NC(=O)c1cc(Cl)ccc1O ?
Result: 44.4

Ask: Quick one: TGI of O=[N+]([O-])/C(C(Cl)=C(Cl)Cl)=C(/Cl)SCc1ccccc1 ?
Result: 3.88

###

System: SF-295 CNS
testDetails: NCI tumour cell line growth inhibition, 48 h; in the data active means GI50 below about 0.43 µM; inactive means the rest
Where a SMILES comes first, the peptide text is derived from it. The star is where a group is joined. Palmitoyl = CCCCCCCCCCCCCCCC(=O)*
Give one outcome, nothing more. List: active, inactive

Example results:
# compound, category
measured = [
    ("Cn1cc(C2=C(c3cccc(OC[C@@H](O)CO)c3)C(=O)NC2=O)c2ccccc21", "inactive"),
    ("COC(=O)c1cncc(/C=C/c2c(C)cc(O)cc2C)c1", "inactive"),
    ("N#CC1=C(/N=C/c2ccccc2)Oc2c(ccc3ccccc23)C1c1ccccc1 (configuration not stated)", "active"),
    ("COC(=O)CCCCC(=O)c1c(C)[nH]c(/C=C2\\N=C(c3ccc[nH]3)C=C2OC)c1C", "inactive"),
    ("COC1=C(OC)C(=O)C(SC/C=C(\\C)CCCC(C)CCCC(C)CCCC(C)C)=CC1=O (configuration not stated)", "inactive"),
    ("C/C(=C\\c1cnc(C)s1)[C@@H]1C[C@@H]2O[C@@H]2CCC[C@H](C)[C@H](O)[C@@H](C)C(=O)C(C)(C)[C@@H](O)CC(=O)O1", "active"),
    ("CC1OC(OC2C(O)CC(OC3C(O)CC(OC4CCC5(C)C(CCC6C5CC(O)C5(C)C(C7=CC(=O)OC7)CCC65O)C4)OC3C)OC2C)CC(O)C1O (configuration not stated)", "active"),
    ("Cc1cccc2c3c(sc12)C(c1ccc(Cl)cc1)C(C#N)=C(N)O3 (configuration not stated)", "active"),
    ("Oc1ccc(C(c2ccc(O)cc2)c2ccc(Br)cn2)cc1", "active"),
    ("O=C(/C=C/c1cccc(O)c1)c1cccc(-n2cc(-c3ccccc3)[nH]c2=O)c1", "inactive"),
]

Ask: Please share the test call associated with COc1cc(/C=C/C(=O)c2cccc(-n3cc(-c4ccc(Cl)cc4)[nH]c3=O)c2)cc(OC)c1OC .
Result: inactive

Ask: Please share the test call associated with COc1ccc(N(CC(=O)NCCC[Te]c2ccccc2)C(=O)CNC(=O)OC(C)(C)C)cc1 .
Result: inactive

Ask: Please share the test call associated with c1ccc2c(c1)Nc1ccncc1S2 .
Result: inactive

Ask: Please share the test call associated with C[C@]12CC[C@@H]3c4cc(OC(F)F)c(OS(N)(=O)=O)cc4CC[C@H]3[C@@H]1CC[C@@H]2O .
Result: active

Ask: Please share the test call associated with CCCCCCCCCCCCCCCC(=O)N1CCCC1C(=O)NCC(=O)NC(Cc1ccccc1)C(=O)NC(C)C(=O)NC(CO)C(=O)NC(Cc1ccc(O)cc1)C(=O)NC(CCCCN)C(=O)NC(CC(C)C)C(=O)NC(CCCN=C(N)N)C(=O)N1CCCC1C(=O)NCC(N)=O (configuration not stated) (Palmitoyl-PGFASYKLRPG-NH2; configuration not given here) .
Result: inactive

Ask: Please share the test call associated with COC(=O)[C@H]1CCCN1C(=O)[C@H]1CCCN1C(=O)[C@@H](Cc1c[nH]c2ccccc12)NC(=S)Nc1cc(C(F)(F)F)cc(C(F)(F)F)c1 .
Result: inactive

Ask: Please share the test call associated with c1ccc(-c2nc(N3CCNCC3)c3oc(-c4ccccc4)nc3n2)cc1 .
Result: inactive

Ask: Please share the test call associated with c1ccc2cc(-c3n(Cc4ccc5ccccc5n4)c4ccccc4[n+]3Cc3ccc4ccccc4n3)ccc2c1 .
Result: active

Ask: Please share the test call associated with CCCCCCNC(=O)Oc1ccc(/C(=C(\C)c2ccc(Cl)cc2)c2ccc(OCCN3CCCCC3)cc2)cc1 .
Result: inactive

Ask: Please share the test call associated with Cc1ccc(-c2nc([P+](c3ccccc3)(c3ccccc3)c3ccccc3)c(S(=O)(=O)c3ccc(C)cc3)o2)cc1 .
Result: inactive

Ask: Please share the test call associated with CCN(CC)CCCCCCNc1cc(OC)cc2cccnc12 .
Result: inactive

Ask: Please share the test call associated with CC(C)(Br)C(=O)C(Br)Br .
Result: inactive
